Source: PubChem BioAssay (NCI)

system: NCI-H226 lung; assay: NCI-60 one-dose screen, 48 h; details: 10 µM unless noted
This is part of a sample that, as a whole, favours compounds with a hit. Of some 83,000 tested, about 20% had one in any assay. Calls of active or inactive are those of the source. How the source made its calls: active means growth percent below 10; inactive means the rest.
Would you mind answering with one of these outcomes? 1.0 for active, 0.0 for inactive

Problem: What is the recorded call for this molecule in the test? "N#Cc1c(NC(=O)c2cccc(C(F)(F)F)c2)sc2c1CCC(=O)C2"
Solution: 0.0

Problem: What is the recorded call for this molecule in the test? Nc1ccn(C2OC(F)(CO)C(O)C2F)c(=O)n1 (stereo not drawn)
Solution: 0.0

Problem: What is the recorded call for this molecule in the test? "Cc1c(C(=O)O[C@H]2[C@@H]3[C@H](C)CC[C@H]3[C@]3(C)O[C@@]2(C2CCCCC2)C[C@H]3OC(=O)CO)ccc2ccccc12"
Solution: 0.0

Problem: What is the recorded call for this molecule in the test? "CCCN1CCN(c2ccc3nc(-c4ccc5nc(-c6cc(OC)c(OC)c(OC)c6)[nH]c5c4)[nH]c3c2)CC1"
Solution: 0.0

Problem: What is the recorded call for this molecule in the test? "CCCCCCNCc1cc(C(C)(C)C)cc(CNCCCCCC)c1O"
Solution: 1.0

Problem: What is the recorded call for this molecule in the test? "Cc1cc(Cl)nc(N(CCCNc2ccnc3cc(Cl)ccc23)Cc2ccccn2)n1"
Solution: 0.0

Problem: What is the recorded call for this molecule in the test? "C[C@@H]1CC[C@@H]2[C@@H]1[C@H](OC(=O)/C=C/c1ccccc1)[C@]1(C3CCCCC3)C[C@@H](NC(=O)CO)[C@@]2(C)O1"
Solution: 0.0

Problem: What is the recorded call for this molecule in the test? "COc1ccc(Cn2cnc3cc(C(=O)Nc4cccc5ccccc45)ccc32)c(OC)c1"
Solution: 0.0

Problem: What is the recorded call for this molecule in the test? "COc1cc2c(c(OC)c1OC)C(=O)/C(=C/c1cc(C)c(O)c(C)c1)S2"
Solution: 0.0

Problem: What is the recorded call for this molecule in the test? "C[C@@H]1C(=O)N(C[C@H](Cc2ccccc2)N(Cc2ccccc2)Cc2ccccc2)[C@]1(Cc1ccccc1)C(=O)OC(C)(C)C"
Solution: 0.0

Problem: What is the recorded call for this molecule in the test? "CC(=O)Nc1nccs1"
Solution: 0.0

Problem: What is the recorded call for this molecule in the test? "Cn1cc(-c2ccc3ncc(-c4ccc(CC(=O)Nc5cc(C(C)(C)C)nn5C)cc4)cc3c2)cn1"
Solution: 0.0

Problem: What is the recorded call for this molecule in the test? "N#C/C(=C\c1ccc(Br)cc1)n1nnc2cc(Cl)c(Cl)cc21"
Solution: 0.0

---

test system: HCC-2998 colon; assay: NCI-60 one-dose screen, 48 h; conditions: 10 µM unless noted
The panel holds about 83,000 compounds, 20% with a hit somewhere; the sample as a whole holds those more often. Activity calls are given as the source filed them. The calls were made as follows: active = growth percent below 10; inactive = the rest.
Would you mind answering with one of these outcomes? yes (1) = active, no (0) = inactive

Problem: What is the recorded call for this molecule in the test? "Fc1ccc(Nc2nc3nonc3nc2Nc2ccc(F)cc2)cc1"
Solution: no (0)

Problem: What is the recorded call for this molecule in the test? "CC(C)N(CCOC(=O)Nc1ccccc1Cl)C(C)C"
Solution: no (0)

Problem: What is the recorded call for this molecule in the test? "NC(N)=N/N=C(/c1ccccc1)c1ccccc1F"
Solution: yes (1)

Problem: What is the recorded call for this molecule in the test? "COC(=O)Nc1nc2ccc(C(=O)C3CC3)cc2[nH]1"
Solution: yes (1)

Problem: What is the recorded call for this molecule in the test? CCCCC1COc2cccc3c(SCC(=O)N(C)c4cccc(Cl)c4)cc[n+]1c23 (stereo not given)
Solution: no (0)
